These data points were gathered from patent US20230067159A1.

# Test Description: Stability in rat liver microsomes
# Format: in vitro ADME
# Run Conditions: pH 7.4; rat liver microsomes 0.5 mg protein/mL, compound 1.5 μM, NADPH, 37° C.; read-out: Half-life t1/2
Observed Property: half-life at 1.5 μM (h)

> print(dat)
                                   compound    observed.property  value.observed
1  CCS(=O)(=O)c1ccc([C@H](CCO)NC(=O)c2ccc(N3C[C@@H](Oc4ccc(OC(F)(F)F)cc4)C[C@H]3CF)cc2)cc1 [Example 117]  half-life at 1.5 μM            6.12
2  CCS(=O)(=O)c1ccc([C@H](CO)NC(=O)c2ccc(N3C[C@@H](Oc4ccc(C(F)(F)F)cc4)C[C@H]3COC(F)F)cc2)cc1 [Example 39]  half-life at 1.5 μM            5.62
3  CCS(=O)(=O)c1ccc([C@H](CCO)NC(=O)c2ccc(N3C[C@@H](Oc4ccc(OC(F)(F)F)cc4)C[C@H]3COC(F)F)cc2)cc1 [Example 119]  half-life at 1.5 μM            7.17
4  CCS(=O)(=O)c1ccc([C@H](CCO)NC(=O)c2ccc(N3C[C@@H](Oc4ccc(C(F)(F)F)cc4)C[C@H]3COC(F)F)cc2)cc1 [Example 91]  half-life at 1.5 μM            2.37

====

# IC50 annotations
# Target: RORγ (Homo sapiens, UniProt P51449)
# Construct: The concentration of B-RORγ LBD was 40 nM
# Sequence (P51449 269-508 limits assumed): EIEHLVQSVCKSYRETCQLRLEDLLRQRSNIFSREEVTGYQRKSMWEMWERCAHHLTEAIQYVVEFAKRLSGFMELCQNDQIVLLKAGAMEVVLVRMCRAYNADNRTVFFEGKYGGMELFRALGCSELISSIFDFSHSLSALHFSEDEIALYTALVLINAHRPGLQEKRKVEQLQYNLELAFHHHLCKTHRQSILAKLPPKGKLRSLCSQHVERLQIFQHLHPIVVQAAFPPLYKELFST
# Test Description: Fluorescence resonance energy transfer (FRET) test, B-RORγ LBD / Biotin-SRC1
# Assay type: biochemical
Observed Property: IC50 (µM)

> print(dat)
                                    molecule  value.observed
 1  CCS(=O)(=O)c1ccc([C@H](CCO)NC(=O)c2ccc(N3CC(Oc4ccc(OC(F)(F)F)cc4)C[C@H]3COC(F)(F)F)cc2)cc1 (stereo in doubt)           0.008
 2  CCS(=O)(=O)c1ccc(CNC(=O)c2ccc(N3CCC(Nc4ccc(C(F)(F)F)cc4)C3)cc2)cc1 (stereo not drawn)          0.0338
 3  CCS(=O)(=O)c1ccc([C@H](CO)NC(=O)c2ccc(N3C[C@@H](Oc4ccc(C(F)(F)F)cc4)C[C@H]3COC(F)(F)F)cc2C#N)cc1           0.064
 4  CCS(=O)(=O)c1ccc(CNC(=O)c2ccc(N3C[C@@H](Oc4ccc(OC(F)(F)F)cn4)C[C@H]3COC(F)F)cc2)nc1           0.008
 5  CCS(=O)(=O)c1ccc([C@H](CO)NC(=O)c2ccc(N3C[C@H](Oc4ccc(C(F)(F)F)cc4)C[C@H]3COC(F)F)cc2)nc1          0.0753
 6  CCC(F)(F)OC[C@@H]1C[C@H](Oc2ccc(C(F)(F)F)cc2)CN1c1ncc(C(=O)N[C@@H](CO)c2ccc(S(=O)(=O)CC)cn2)cn1          0.0121
 7  CCS(=O)(=O)c1ccc([C@H](CO)NC(=O)c2ccc(N3C[C@@H](Oc4ccc(C(F)(F)F)cc4)C[C@H]3COC(F)F)cc2)nc1           0.004
 8  CCS(=O)(=O)c1ccc([C@H](CO)NC(=O)c2cnc(N3CC[C@H](Oc4ccc(C(F)(F)F)cc4)C3)c(F)c2)cc1           0.078
 9  CCS(=O)(=O)c1ccc([C@H](CCO)NC(=O)c2ccc(N3C[C@@H](Oc4ccc(OC(F)(F)F)cc4)C[C@H]3COC(F)F)cc2)cc1          0.0092
10  CCS(=O)(=O)c1ccc([C@H](CO)NC(=O)c2ccc(N3C[C@H](Oc4ccc(C(F)(F)F)cc4)C[C@H]3COCC3CC3)cc2)cc1           0.017
11  CCS(=O)(=O)c1ccc([C@H](CO)NC(=O)c2ccc(N3C[C@H](Oc4ccc(C(F)(F)F)cc4)C[C@H]3COCCF)cc2)cc1          0.0104
12  CCS(=O)(=O)c1ccc(CNC(=O)c2cnc(N3C[C@@H](Oc4ccc(Cl)cn4)C[C@H]3COC(F)F)c(F)c2)nc1          0.0062
13  CCS(=O)(=O)c1ccc([C@H](CO)NC(=O)c2ccc(N3C[C@@H](Oc4ccc5c(c4)OC(F)(F)O5)C[C@H]3COC(F)F)cc2)cc1           0.004
14  CCS(=O)(=O)c1ccc([C@H](CO)NC(=O)c2ccc(N3CCC(Oc4ccc(C(F)(F)F)cc4)C3)cc2)cc1 (stereo partly drawn)           0.024
15  CCS(=O)(=O)c1ccc([C@H](CO)NC(=O)c2ccc(N3C[C@@H](Oc4ccc(C(F)(F)F)cc4)C[C@H]3COC(F)F)c(F)c2)cc1          0.0045

====

The entries below are paired with their reported IC50.
# Target: RORγ (Homo sapiens)
# Construct: The concentration of B-RORγ LBD was 40 nM
# Sequence (P51449 269-508 limits assumed): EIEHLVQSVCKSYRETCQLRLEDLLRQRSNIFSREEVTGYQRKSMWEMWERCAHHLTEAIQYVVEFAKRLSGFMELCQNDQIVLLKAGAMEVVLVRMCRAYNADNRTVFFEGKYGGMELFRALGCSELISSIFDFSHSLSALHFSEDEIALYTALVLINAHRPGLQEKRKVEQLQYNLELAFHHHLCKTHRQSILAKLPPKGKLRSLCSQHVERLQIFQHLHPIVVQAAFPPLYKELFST
# Test Description: Fluorescence resonance energy transfer (FRET) test, B-RORγ LBD / Biotin-SRC1
# Assay type: biochemical
Observed Property: IC50 (nM)

> print(dat)
                                   molecule  value.observed
1  CCS(=O)(=O)c1ccc(CNC(=O)c2ccc(N3CC(Cc4ccc(C(F)(F)F)cc4)C[C@H]3COC)cc2)cc1 (stereo partly shown)             8.5
2  CCS(=O)(=O)c1ccc([C@H](CCO)NC(=O)c2ccc(N3C[C@H](Oc4ccc(OC(F)(F)F)cc4)C[C@H]3COC(F)F)nc2)cc1              13
3  CCS(=O)(=O)c1ccc([C@H](CO)NC(=O)c2ccc(N3CCC(Cc4ccc(C(F)(F)F)cc4)C3)cc2)cc1 (stereo partly shown)               9
4  CCS(=O)(=O)c1ccc(CNC(=O)c2ccc(N3CCC(Oc4ccc(C(F)(F)F)cc4)C3)cc2)cc1 (stereo not shown)            11.9
5  CCS(=O)(=O)c1ccc([C@H](CCO)NC(=O)c2ccc(N3C[C@@H](Oc4ccc(OC(F)(F)F)cn4)C[C@H]3COC(F)F)cc2)cc1               6
6  CCOC[C@@H]1CC(Oc2ccc(C(F)(F)F)cc2)CN1c1ccc(C(=O)N[C@@H](CO)c2ccc(S(=O)(=O)CC)cc2)cc1 (stereo partly shown)            14.1
7  CCS(=O)(=O)c1ccc(CNC(=O)c2ccc(N3CCC(Cc4ccc(C(F)(F)F)cc4)C3)cc2)cc1 (stereo not shown)              14
